Target: T1, RPA70N_(1–120), N-terminal domain of RPA70 (DBD-F) (UniProt P27694 1-120)
T1 construct: Replication protein A 70-kDa subunit (RPA70), N-terminal domain (DBD-F), residues 1-120; Uniformly 15N-labelled in the NMR titrations, unlabelled in the FPA assays; also called 15N-labeled RPA70N; source: 15N-labeled form by the same method using M9 medium
T1 sequence (P27694 1-120): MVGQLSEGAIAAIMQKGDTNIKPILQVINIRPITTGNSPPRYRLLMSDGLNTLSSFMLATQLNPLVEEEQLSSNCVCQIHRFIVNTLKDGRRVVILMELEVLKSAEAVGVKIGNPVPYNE
Assay: fluorescence polarisation; FPA; 0–150 μM RPA70N or RPA70A titrated to 50 nM FITC-labeled peptide; 20 mM HEPES, 100 mM NaCl, 2 mM DTT, pH 7.4; 1 h at 25 °C; one site–specific fit
Settings: both partners purified
Where no end group is shown, it is not given here.

Binder: DYGDDDYGGAGGYDQDPGGFGDPAPD (peptide, UniProt P15927 8-33, looked up, also: FITC with 6-aminohexanoic acid spacer, end not given here) [FITC-labeled pmRPA32_(8–33) peptide (phosphomimetic RPA32, eight aspartic acids)]
Unit symbol: µM
Kd: 21.5
